# System Tested: Human Calpain 1/NS1 (Homo sapiens)
# Sequence (P07384 whole entry): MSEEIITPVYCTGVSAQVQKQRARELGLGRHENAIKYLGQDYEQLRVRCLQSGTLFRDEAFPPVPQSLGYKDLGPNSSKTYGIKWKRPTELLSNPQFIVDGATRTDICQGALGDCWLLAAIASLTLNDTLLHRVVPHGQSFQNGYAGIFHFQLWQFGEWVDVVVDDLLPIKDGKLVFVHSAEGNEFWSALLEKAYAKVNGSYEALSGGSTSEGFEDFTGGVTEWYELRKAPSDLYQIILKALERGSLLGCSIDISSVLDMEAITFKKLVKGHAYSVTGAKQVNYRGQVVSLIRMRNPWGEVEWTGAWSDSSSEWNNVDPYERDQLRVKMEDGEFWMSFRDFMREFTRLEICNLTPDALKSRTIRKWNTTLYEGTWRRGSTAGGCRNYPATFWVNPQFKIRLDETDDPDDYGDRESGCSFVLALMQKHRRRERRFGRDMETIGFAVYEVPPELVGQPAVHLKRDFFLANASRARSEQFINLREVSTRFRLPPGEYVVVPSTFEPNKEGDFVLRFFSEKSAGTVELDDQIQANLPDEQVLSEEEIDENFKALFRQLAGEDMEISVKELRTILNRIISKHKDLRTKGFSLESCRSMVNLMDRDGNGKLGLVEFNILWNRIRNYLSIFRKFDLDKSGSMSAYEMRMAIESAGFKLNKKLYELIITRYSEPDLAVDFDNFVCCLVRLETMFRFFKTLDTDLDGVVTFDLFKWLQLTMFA
# Sequence (P04632 whole entry partner): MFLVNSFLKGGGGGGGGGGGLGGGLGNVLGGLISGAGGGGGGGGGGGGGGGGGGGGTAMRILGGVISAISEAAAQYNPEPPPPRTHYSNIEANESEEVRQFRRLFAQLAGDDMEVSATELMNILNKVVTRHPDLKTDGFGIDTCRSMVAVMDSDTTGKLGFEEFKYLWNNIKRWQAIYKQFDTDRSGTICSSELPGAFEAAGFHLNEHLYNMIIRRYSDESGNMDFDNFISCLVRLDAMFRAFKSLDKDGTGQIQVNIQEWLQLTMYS
# Method Notes: Calpain inhibition continuous fluorescence (FRET) assay, Human Calpain 1/NS1
# Assay type: biochemical
# Condition Details: read-out: Human Calpain 1/NS1 IC50
Measurement Type: IC50

// query Would you kindly share the measured IC50 for CC#Cc1nn(-c2ccccc2)cc1C(=O)NC(Cc1ccccc1)C(=O)C(N)=O (centres unmarked) ?
// result > 10 µM

// query Would you kindly share the measured IC50 for Cn1cc(C(=O)NC(Cc2ccccc2)C(=O)C(N)=O)c(C2CCOCC2)n1 (centres unmarked) ?
// result 3 to 10 µM

// query Would you kindly share the measured IC50 for Cn1cc(C(=O)NC(Cc2ccccc2)C(=O)C(N)=O)c(C2CCCCC2)n1 (centres unmarked) ?
// result < 3 µM

// query Would you kindly share the measured IC50 for Cn1cc(C(=O)NC(CCc2ccccc2)C(=O)C(N)=O)c(-c2ccccc2)n1 (centres unmarked) ?
// result < 3 µM

// query Would you kindly share the measured IC50 for COCCOCCOc1cccc(-n2nc(C)cc2C(=O)NC(Cc2ccccc2)C(=O)C(N)=O)c1 (centres unmarked) ?
// result < 3 µM

// query Would you kindly share the measured IC50 for Cc1ccc(-c2nn(C)cc2C(=O)NC(Cc2ccccc2)C(=O)C(N)=O)o1 (centres unmarked) ?
// result < 3 µM

// query Would you kindly share the measured IC50 for Cn1cc(C(=O)N[C@@H](Cc2ccccc2)C(=O)C(=O)NCCNC(=O)OC(C)(C)C)c(-c2ccccc2)n1 ?
// result < 3 µM

// query Would you kindly share the measured IC50 for Cn1cc(C(=O)NC(Cc2ccccc2)C(=O)C(N)=O)c(-c2ccoc2)n1 (centres unmarked) ?
// result < 3 µM

// query Would you kindly share the measured IC50 for Cc1csc(-c2nn(C)cc2C(=O)NC(Cc2ccccc2)C(=O)C(N)=O)c1 (centres unmarked) ?
// result < 3 µM

// query Would you kindly share the measured IC50 for Cn1cc(C(=O)NC(Cc2ccccc2)C(=O)C(N)=O)c(-c2ccccc2C(F)F)n1 (centres unmarked) ?
// result < 3 µM

// query Would you kindly share the measured IC50 for NC(=O)C(=O)C(Cc1ccccc1)NC(=O)c1cn(C(F)F)nc1-c1ccccc1 (centres unmarked) ?
// result < 3 µM

// query Would you kindly share the measured IC50 for Cc1cncc(-c2nn(C(F)F)cc2C(=O)NC(Cc2ccccc2)C(=O)C(N)=O)c1 (centres unmarked) ?
// result < 3 µM

// query Would you kindly share the measured IC50 for NC(=O)C(=O)C(Cc1ccccc1)NC(=O)c1cn(C(F)F)nc1-c1cc(F)ccc1F (centres unmarked) ?
// result < 3 µM

// query Would you kindly share the measured IC50 for Cn1cc(C(=O)NC(Cc2ccccc2)C(=O)C(N)=O)c(Cc2ccccc2)n1 (centres unmarked) ?
// result > 10 µM

// query Would you kindly share the measured IC50 for CCCCC(NC(=O)c1nsnc1-c1ccccc1)C(=O)C(N)=O (centres unmarked) ?
// result < 3 µM

// query Would you kindly share the measured IC50 for Cc1cc(C(=O)N[C@@H](Cc2ccccc2)C(=O)CF)n(-c2cnccn2)n1 ?
// result 3 to 10 µM

// query Would you kindly share the measured IC50 for Cc1cc(C(=O)NC(Cc2ccccc2)C(=O)C(N)=O)n(-c2ccncn2)n1 (centres unmarked) ?
// result < 3 µM

src = patent US11339130B1
